Test system: Epidermophyton floccosum OKI/IV.
Run Description: minimal inhibitory concentration in Sabouraud medium
Type: cell-based
Condition: Epidermophyton floccosum, 72 h; read-out: minimal inhibitory concentration
So basically, if MIC comes in under 5 µg/mL it's Satisfied, and if it's 5 µg/mL or more it's Not satisfied.

Record excerpt, results attached:
{"columns": ["Compound", "Measured On", "Group"],
 "data": [
  ["COC(=O)c1ccc(N2C(=O)CC(S(=O)(=O)C3CCCCC3)C2=O)cc1OC(C)=O (stereo not drawn)", "Epidermophyton floccosum OKI/IV.", "Not satisfied"],
  ["O=C1CC(S(=O)(=O)C2CCCCC2)C(=O)N1c1ccccc1Cl (stereo not drawn)", "Epidermophyton floccosum OKI/IV.", "Satisfied"],
  ["O=C1CC(S(=O)(=O)C2CCCCC2)C(=O)N1c1ccc([N+](=O)[O-])cc1 (stereo not drawn)", "Epidermophyton floccosum OKI/IV.", "Not satisfied"],
  ["O=C1CC(S(=O)(=O)C2CCCCC2)C(=O)N1 (stereo not drawn)", "Epidermophyton floccosum OKI/IV.", "Not satisfied"],
  ["O=C1CC(S(=O)(=O)C2CCCCC2)C(=O)N1c1cccc(Cl)c1 (stereo not drawn)", "Epidermophyton floccosum OKI/IV.", "Satisfied"],
  ["CC(=O)c1ccc(N2C(=O)CC(S(=O)(=O)C3CCCCC3)C2=O)cc1 (stereo not drawn)", "Epidermophyton floccosum OKI/IV.", "Not satisfied"]
]}

Moving on to another compound below.
MIC strictly < 5 µg/mL for this compound? O=C1CC(S(=O)(=O)C2CCCCC2)C(=O)N1c1ccccc1[N+](=O)[O-] (stereo not drawn)
Not satisfied
